Test system: SF-268 CNS
Test: NCI-60 one-dose screen, 48 h
Settings: 10 µM unless noted
The panel holds about 83,000 compounds, 20% with a hit somewhere; the sample as a whole holds those more often. Active and inactive are the calls of the source. The calls were made as follows: active = growth percent below 10; inactive = the rest.
Give one outcome, nothing more. List: class 1 = active, class 0 = inactive

COC(=O)CSc1ccc(Cl)cc1: class 0

How did this test come out for `C[C@H](NC(=O)c1snnc1C1CC1)c1c(F)cccc1Cl` ?
class 0

How did this test come out for `CCNC(=O)c1ccc2c(c1)nc(-c1ccc(Cl)cc1)n2-c1cc(C(C)(C)C)[nH]n1` ?
class 0

How did this test come out for `NS(=O)(=O)c1ccc(CCn2c(SCC(=O)N/N=C/c3cc4ccccc4[nH]3)nc3ccccc3c2=O)cc1` ?
class 0

How did this test come out for CCN1C(=O)N(CC)C2C1NN=c1s/c(=C\c3ccco3)c(=O)n12 (stereo not drawn) ?
class 0

How did this test come out for `O=C(Nc1ccc(Cl)cc1)c1cc(-c2ccc(Cl)cc2)c2sc(=O)[nH]c2n1` ?
class 0

How did this test come out for CCN1C(=O)N(CC)C2C1N=C(SC)N2/N=C/C=C/c1ccccc1OC (stereo not drawn) ?
class 0

How did this test come out for `COc1cc(OC)c2sc(-c3ccc(-n4cncc4-c4ccc(OC)c(N)c4)cc3)nc2c1` ?
class 0

How did this test come out for Cc1ccc(C(CN(C)C)C(=O)c2ccccc2)cc1 (stereo not drawn) ?
class 0

How did this test come out for `N=C(N)c1ccc(NCCNc2ccc(C(=N)N)cc2)cc1` ?
class 0

How did this test come out for CCN(CC)CCCC(C)Nc1c(-c2ccccc2)cnc2cc(Cl)ccc12 (stereo not drawn) ?
class 0

How did this test come out for `COc1cnc2c(c1)C(=O)c1c-2n(CCCN2CCN(C)CC2)c(=O)c2cc(Cl)ccc12` ?
class 0

How did this test come out for `O=S1(=O)NCCCN1CCNc1nccc(-c2c(-c3cccc(O)c3)nc3sccn23)n1` ?
class 0

How did this test come out for `Cc1ccc(Nc2cccc3ccccc23)cc1` ?
class 0

====

Test system: BT-549 breast
Assay: NCI-60 one-dose screen, 48 h
Settings: 10 µM unless noted
This is part of a sample that, as a whole, favours compounds with a hit. Of some 83,000 tested, about 20% had one in any assay. The source made the active and inactive calls. How the source made its calls: active means growth percent below 10; inactive means the rest.
Give one outcome, nothing more. List: 1 for active, -1 for inactive

CS(=O)(=O)c1ccc(C(=O)N/N=C/c2cccc3ccccc23)cc1: -1
CCCCCCCCCCCCCCCCCC(=O)OCCCCCCCCCCCCC: -1
COc1ccc(Cl)cc1Nc1nc(C(F)(F)F)ccc1C(=O)NN: -1
COc1ccc2nc3ccccc3c(NCc3ccc(C)cc3)c2c1: -1
COc1ccc(N=C2CSc3nnc(-c4cc(F)c(Cl)cc4Cl)n3N2)cc1: 1
CC[C@H](C)[C@H](N)C(=O)O: -1
COc1cc([N+](=O)[O-])cc(OC)c1OC: -1
COc1cc(NCC(O)CN(CC(C)C)CC(C)C)c2ncccc2c1 (configuration not stated): -1
CCCCCCCCCCCCCCCC1=NC(C)(C)CN1C(C)C: -1
CS(=O)(=O)c1ccc(C(=O)N/N=C/c2ccc3c(c2)OCO3)cc1: -1

How did this test come out for `CC1=C(O)C(=O)CC1` ?
-1

How did this test come out for `CC(=O)Cc1ccccn1` ?
-1

====

System: HT29 colon
Experiment: NCI-60 one-dose screen, 48 h
Conditions: 10 µM unless noted
The panel holds about 83,000 compounds, 20% with a hit somewhere; the sample as a whole holds those more often. The source made the active and inactive calls. How the source made its calls: active means growth percent below 10; inactive means the rest.
Give one outcome, nothing more. List: active, inactive

Look over these answered cases.
N=C(N)c1ccc(-c2ccc(-c3ccco3)o2)cc1F: active
O=C(CC(=O)c1cccc(Cl)c1)c1cccc(Cl)c1: inactive
CC(C)c1ccc(-c2cnc3nonc3n2)cc1: inactive

How did this test come out for CCOC(=O)C(Cc1ccccc1)n1c(O)c(/C=N/c2ncc(Cc3ccc(Cl)cc3Cl)s2)sc1=S (configuration not stated) ?
active

How did this test come out for `COc1cc(/C=C\c2cc(/C=C\c3ccc(O)c(OC)c3)n(C(=O)Nc3ccc(C(F)(F)F)cc3)n2)ccc1O` ?
active

How did this test come out for `Cc1c(C(=O)CCl)c(=O)n(-c2ccccc2)n1C` ?
inactive

How did this test come out for `COc1ccc(-c2nc3ccccc3n3cccc23)cc1` ?
inactive

How did this test come out for `C=C1C(=O)O[C@H]2[C@H]1CC/C(COC(=O)NCc1ccc(Cn3c(=O)sn(CCCl)c3=O)cc1)=C\CC[C@@]1(C)O[C@@H]21` ?
inactive

How did this test come out for `C#Cc1cccc(Nc2nc3cc([N+](=O)[O-])ccc3nc2Nc2ccc(O)cc2)c1` ?
active

How did this test come out for `Cc1ccc(OC2=C(C#N)C(=N)N3C(=NN2)Sc2c(C)ccc(C)c23)cc1` ?
inactive

How did this test come out for CCN(CC)CCCC(C)Nc1ccnc2ccc(Oc3ccccc3)cc12 (configuration not stated) ?
inactive

How did this test come out for `Cc1cc(-c2ccccc2)on1` ?
inactive

====

Test system: EKVX NSCLC
Assay: NCI-60 one-dose screen, 48 h
Conditions: 10 µM unless noted
Compounds without any hit were thinned out: in the full panel of roughly 83,000, 20% have a hit. The source made the active and inactive calls. How the source made its calls: active means growth percent below 10; inactive means the rest.
Give one outcome, nothing more. List: active, inactive

How did this test come out for O=C1N(Cc2ccccc2Cl)c2ccccc2C12NN=C(c1ccccc1)S2 (stereo unspecified) ?
inactive

How did this test come out for `CCCCCCCCCCCCCC` ?
inactive

How did this test come out for COC(=O)C(Br)(C(=O)OC)C(Br)C(Br)C(Br)c1ccccc1 (stereo unspecified) ?
inactive

How did this test come out for CCOC(=O)C1OC2(CCCC2)OC1C(=O)OCC (stereo unspecified) ?
inactive

====

Tested on: SK-MEL-5 melanoma
Assay: NCI-60 one-dose screen, 48 h
Settings: 10 µM unless noted
The panel holds about 83,000 compounds, 20% with a hit somewhere; the sample as a whole holds those more often. Calls of active or inactive are those of the source. The calls were made as follows: active = growth percent below 10; inactive = the rest.
Give one outcome, nothing more. List: true (1) = active, false (0) = inactive

Look over these answered cases.
CCOC(=O)Nc1ccc2nc(Sc3ccc(Cl)cc3)sc2c1: true (1)
COc1cc(CN(CCC(O)N2CCCC2=O)Cc2ccc3c(c2)OCO3)cc(OC)c1OC (centres undefined): false (0)
COc1ccc(Oc2nc(Nc3ccc(N4CCOCC4)cc3)ncc2NC(=O)Nc2cccc(OC)c2)cc1: false (0)

How did this test come out for `CCOC(=O)C#Cc1c(C(=O)OCC)nnn1[C@@H]1O[C@H](COC(C)=O)[C@@H](OC(C)=O)[C@H]1OC(C)=O` ?
false (0)

====

Test system: BT-549 breast
Experiment: NCI-60 one-dose screen, 48 h
Conditions: 10 µM unless noted
The panel holds about 83,000 compounds, 20% with a hit somewhere; the sample as a whole holds those more often. Active and inactive are the calls of the source. Rule for the calls: active = growth percent below 10; inactive = the rest.
Give one outcome, nothing more. List: active, inactive

Look over these answered cases.
Cc1csc(N/N=C/c2ccncc2)n1: inactive
COc1cc(C2CC(c3ccc(Cl)cc3)=NN2C=O)ccc1Oc1ccnc2cc(Cl)ccc12 (stereo unspecified): inactive
Cc1cc(O)ccc1Sc1ccccc1[N+](=O)[O-]: inactive
CN(C)CC(=O)c1ccc2cc(Br)c3ccccc3c2c1: inactive
CCOC(=O)N1C2CCC(C2)N1C(=O)OCC: inactive
Clc1ccccc1CNc1c2ccccc2nc2ccccc12: inactive
CC1OC(n2c3ccccc3c3c4c(c5c6ccccc6[nH]c5c32)C(=O)N(CCN[C@H]2CCC[C@@H]2N)C4=O)CC(O)C1O (stereo partly specified): inactive
Oc1ccc(-c2nnc3c4[nH]ccc4ncn23)cc1: inactive

How did this test come out for `COc1ccc(/C=C(\C#N)c2cc(OC)c(OC)c(OC)c2)cc1` ?
inactive

How did this test come out for COc1cc(C2CC(=O)Nc3c2cnn3C)cc(OC)c1OC (stereo unspecified) ?
inactive

How did this test come out for `Cc1[nH]c2ccccc2c1C1=CC(=O)C=CC1=O` ?
inactive

How did this test come out for `COc1cnc2c(c1)C(=O)c1c-2n(CCCN2CCNCC2)c(=O)c2cc(Cl)ccc12` ?
inactive

How did this test come out for `Nc1c(N)c2ccccc2c2ccccc12` ?
inactive

How did this test come out for `CCN(CC)CCCCCCCCNc1c2ccc(Cl)cc2nc2ccc(OC)cc12` ?
active

How did this test come out for `NS(=O)(=O)c1ccc(CCn2c(SCC(=O)N/N=C/c3ccccc3O)nc3ccccc3c2=O)cc1` ?
inactive

How did this test come out for CCCCc1nc(Cl)c(C2CC(c3ccc(S(N)(=O)=O)cc3)=NN2c2cc(Cl)cc(Cl)c2)[nH]1 (stereo unspecified) ?
inactive

How did this test come out for COc1cc(CN(CCC(O)N2CCCC2=O)Cc2ccc3c(c2)OCO3)cc(OC)c1OC (stereo unspecified) ?
inactive

How did this test come out for `C=C(COC(C)=O)[C@H]1CC/C(C)=C/CC/C(C)=C/CC[C@@]2(C)O[C@H]2C1` ?
inactive

How did this test come out for `CC1(C)CN(CCNc2nccc(-c3c(-c4cccc(O)c4)nc4sccn34)n2)S(=O)(=O)N1` ?
inactive

How did this test come out for CCOC(=O)C1=C(C(=O)OCC)N(c2cc(OC)c(OC)c(OC)c2)C(N)=C(C#N)C1c1cc(=O)[nH]c2ccccc12 (stereo unspecified) ?
inactive

How did this test come out for `C=C1C(=O)O[C@H]2[C@H]1CC/C(COC(=O)NCc1[nH]nc3ccccc13)=C\CC[C@@]1(C)O[C@@H]21` ?
inactive

How did this test come out for `COc1cccc(-c2nc3sccn3c2-c2ccnc(NCCN3CCCNS3(=O)=O)n2)c1` ?
inactive

How did this test come out for `N/C(=N\O)c1ncc(-c2ccc(C(F)(F)F)cc2)c(NC2CCCCCC2)n1` ?
active

How did this test come out for `O=S(=O)(Nc1ccc2ccccc2c1)N1CCCCC1` ?
inactive

How did this test come out for C=CCOC(=O)C1=C(C)NC2=C(C(=O)CC(C)(C)C2)C1c1ccc(OC)cc1 (stereo unspecified) ?
inactive

How did this test come out for `O=C(Nc1cccc(-n2ccc3c(NC(=O)c4ccccc4)nccc32)c1)c1ccc(Cl)c(Cl)c1` ?
active
